Tested on: Canis familiaris
experiment notes: Activity duration index was evaluated in mixed-breed or Beagle dogs after intravenous administration.
Type: functional, Canis lupus familiaris
ADI values for the molecules below.

Would you please look over these solved cases?
Look up ADI with Canis familiaris for this molecule: CC1CCCCN1CCC(CCN(C(C)C)C(C)C)(C(N)=O)c1ccccc1F (stereo not drawn)
0.6

Form field: ADI recorded for CC(C)N(CCC(CCN1CCCCCC1)(C(N)=O)c1ccccc1)C(C)C (stereo not drawn) with Canis familiaris (enter value)
0.68

Then this molecule:
Kindly state the measured ADI obtained for CC(C)c1ccc(C(CCN2CCCCC2)(CCN(C(C)C)C(C)C)C(N)=O)cc1 (stereo not drawn) with Canis familiaris.
0.75
